Provide the recorded IC50 for the entries that follow.
# experimental_target: EBP-Ig (N-terminal 225 amino acids of the human EPO receptor joined to an Ig heavy chain) (Homo sapiens, UniProt P19235)
# Construct: Ig heavy chain (fusion partner); made in house; host or cells: NSO cells (secreted into conditioned media)
# Sequence (P19235 25-250 limits assumed): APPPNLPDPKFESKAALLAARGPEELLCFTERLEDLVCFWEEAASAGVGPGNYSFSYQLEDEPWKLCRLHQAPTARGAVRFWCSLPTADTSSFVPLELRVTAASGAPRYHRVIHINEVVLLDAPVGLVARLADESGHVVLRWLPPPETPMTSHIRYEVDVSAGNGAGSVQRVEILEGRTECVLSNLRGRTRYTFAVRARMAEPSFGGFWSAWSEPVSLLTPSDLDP
# protocol_summary: Inhibition of [125I]EPO binding to immobilized EBP-Ig (EPO binding protein-Ig), scintillation Flash plate competition assay
# condition_parameters: read-out: IC50, μM (Inhibition of EPO binding to EBP-Ig); 0.5 nM [125I]EPO; concentration reducing corrected total binding to 50%
Numbers only, in µM.

compound="O=C(O)CCC(C(=O)NCCOCCOCCNC(=O)C(CCC(=O)O)N(Cc1cccc(NC(=O)c2ccco2)c1)Cc1cccc(Oc2ccccc2)c1)N(Cc1cccc(NC(=O)c2ccco2)c1)Cc1cccc(Oc2ccccc2)c1 (stereo not shown)" property_label=IC50 units_label=µM observed=20
compound="O=C(O)CCCC(=O)NCCCCC(C(=O)NCCCCCCCCCCCCNC(=O)C(CCCCNC(=O)CCCC(=O)O)N(Cc1ccc(OCc2ccccc2)cc1)Cc1ccc(OCc2ccccc2)cc1)N(Cc1ccc(OCc2ccccc2)cc1)Cc1ccc(OCc2ccccc2)cc1 (stereo not shown)" property_label=IC50 units_label=µM observed=85
compound="O=C(O)CCCC(=O)NCCCCC(C(=O)NCCOCCOCCNC(=O)C(CCCCNC(=O)CCCC(=O)O)N(Cc1ccc(OCc2ccccc2)cc1)Cc1ccc(OCc2ccccc2)cc1)N(Cc1ccc(OCc2ccccc2)cc1)Cc1ccc(OCc2ccccc2)cc1 (stereo not shown)" property_label=IC50 units_label=µM observed=1.5

Next up:
### Prompt Give recorded IC50. NCCCCC(C(=O)NCCOCCOCCNC(=O)C(CCCCN)N(Cc1ccc(OCc2ccccc2)cc1)Cc1ccc(OCc2ccccc2)cc1)N(Cc1ccc(OCc2ccccc2)cc1)Cc1ccc(OCc2ccccc2)cc1 (stereo not shown)
### Response 2

----------
# experimental_target: EBP-Ig (N-terminal 225 amino acids of the human EPO receptor joined to an Ig heavy chain) (Homo sapiens)
# Construct: Ig heavy chain (fusion partner); made in house; host or cells: NSO cells (secreted into conditioned media)
# protocol_summary: Inhibition of [125I]EPO binding to immobilized EBP-Ig (EPO binding protein-Ig), scintillation Flash plate competition assay
# condition_parameters: 0.5 nM [125I]EPO; 0–500 μM test compound
property_label: IC30 μM (Inhibition of EPO binding to EBP-Ig) (µM)
Numbers only, in µM.

compound="COC(=O)C(CCCCN)N(Cc1ccc(OCc2ccccc2)cc1)Cc1ccc(OCc2ccccc2)cc1 (stereo not drawn)" units_label=µM observed=6
compound="COC(=O)C(CCCCN)N(Cc1cccc(OCc2ccccc2)c1)Cc1cccc(OCc2ccccc2)c1 (stereo not drawn)" units_label=µM observed=2
compound="NCCCCC(C(=O)NCCc1ccccc1)N(C/C=C/c1cccc(Oc2ccccc2)c1)C/C=C/c1cccc(Oc2ccccc2)c1 (stereo not drawn)" units_label=µM observed=8
compound="O=C(O)CCCC(=O)NCCCCC(C(=O)NCCOCCOCCNC(=O)C(CCCCNC(=O)CCCC(=O)O)N(Cc1ccc(OCc2ccccc2)cc1)Cc1ccc(OCc2ccccc2)cc1)N(Cc1ccc(OCc2ccccc2)cc1)Cc1ccc(OCc2ccccc2)cc1 (stereo not drawn)" units_label=µM observed=1

Below is a list of compounds. For each, state its recorded IC30 μM (Inhibition of EPO binding to EBP-Ig).
1. NCCCCC(C(=O)NCCOCCOCCNC(=O)C(CCCCN)N(Cc1ccc(OCc2ccccc2)cc1)Cc1ccc(OCc2ccccc2)cc1)N(Cc1ccc(OCc2ccccc2)cc1)Cc1ccc(OCc2ccccc2)cc1 (stereo not drawn)
2. O=C(O)CCCC(=O)NCCCCC(C(=O)NCCCOCCOCCOCCCNC(=O)C(CCCCNC(=O)CCCC(=O)O)N(Cc1ccc(OCc2ccccc2)cc1)Cc1ccc(OCc2ccccc2)cc1)N(Cc1ccc(OCc2ccccc2)cc1)Cc1ccc(OCc2ccccc2)cc1 (stereo not drawn)

### Response
[1.5, 5]
